- protocolNotes: physchem
metric: pKa
# answer = number (no unit)

Please give measured pKa of the following entry: CN(C)C1CCCCC1
10

====

Task for the reader: assign each of the following molecules its reported pKa.
- protocolNotes: physchem
- conditionLabel: aqueous solution of the amine

Please give measured pKa of the following entry: CN(C)C1CCC(N(C)C)CC1 (stereo not drawn)
9.8

Please give measured pKa of the following entry: CN(C)CCCN1CN(CCCN(C)C)CN(CCCN(C)C)C1
11.2

Please give measured pKa of the following entry: CN(C)CCCN(CCO)CCCN(C)C
10.1
